Below is a list of entries, each paired with its recorded ED50 value.
# test_system: cardiac β-receptors (Felis catus, UniProt Q9TST6)
# Construct: bodyweight of isoprenaline into a chloralose-anaesthetised cat; from tissue; host or cells: heart of the living chloralose-anaesthetised cat (in vivo)
# Sequence (Q9TST6 whole entry): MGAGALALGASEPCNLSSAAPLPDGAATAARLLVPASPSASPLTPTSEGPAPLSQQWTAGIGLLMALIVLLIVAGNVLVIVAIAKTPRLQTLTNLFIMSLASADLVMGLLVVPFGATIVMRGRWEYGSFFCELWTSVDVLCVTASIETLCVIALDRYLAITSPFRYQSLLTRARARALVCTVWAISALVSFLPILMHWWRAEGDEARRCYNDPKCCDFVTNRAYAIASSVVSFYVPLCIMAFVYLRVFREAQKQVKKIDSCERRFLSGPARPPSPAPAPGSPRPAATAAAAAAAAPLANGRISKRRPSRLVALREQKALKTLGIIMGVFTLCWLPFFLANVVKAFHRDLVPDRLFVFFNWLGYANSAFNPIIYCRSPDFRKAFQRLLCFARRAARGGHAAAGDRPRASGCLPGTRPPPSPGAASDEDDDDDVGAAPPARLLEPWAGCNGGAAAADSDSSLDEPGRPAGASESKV
# measurement_protocol: inhibition of the tachycardia produced by injection of 0.2 μg/kg isoprenaline into a chloralose-anaesthetised cat (β-adrenergic blocking activity)
# Assay type: in vivo
# condition_info: para-substituted prior-art compounds; chloralose-anaesthetised cat, isoprenaline 0.2 μg/kg; read-out: ED50, Compound A
property_measured: ED50 (mg/kg)

INSERT INTO results (compound, test_system, recorded_number) VALUES
  ('CNC(=O)Cc1ccc(OCC(O)CNC(C)C)cc1 (centres unmarked) [Compound A, R^1 isopropyl, R^2 methyl, reference compound]', 'cardiac β-receptors (Felis catus, UniProt Q9TST6)', 0.335),
  ('CC(C)NCC(O)COc1ccc(CC(=O)NC(C)C)cc1 (centres unmarked) [Compound A, R^1 isopropyl, R^2 isopropyl, reference compound]', 'cardiac β-receptors (Felis catus, UniProt Q9TST6)', 0.225),
  ('C=CCNC(=O)Cc1ccc(OCC(O)CNC(C)C)cc1 (centres unmarked) [Compound A, R^1 isopropyl, R^2 allyl, reference compound]', 'cardiac β-receptors (Felis catus, UniProt Q9TST6)', 1.47),
  ('CCCCNC(=O)Cc1ccc(OCC(O)CNC(C)C)cc1 (centres unmarked) [Compound A, R^1 isopropyl, R^2 n-butyl, reference compound]', 'cardiac β-receptors (Felis catus, UniProt Q9TST6)', 0.606),
  ('CC(C)(C)NCC(O)COc1ccc(CC(N)=O)cc1 (centres unmarked) [Compound A, R^1 t-butyl, R^2 H, reference compound]', 'cardiac β-receptors (Felis catus, UniProt Q9TST6)', 0.136);

###

# test_system: cardiac β-receptors (Felis catus, UniProt Q9TST6)
# Construct: bodyweight of isoprenaline into a chloralose-anaesthetised cat; from tissue; host or cells: heart of the living chloralose-anaesthetised cat (in vivo)
# measurement_protocol: inhibition of the tachycardia produced by injection of 0.2 μg/kg isoprenaline into a chloralose-anaesthetised cat (β-adrenergic blocking activity)
# Type: in vivo
# condition_info: ortho-substituted compounds of the invention; chloralose-anaesthetised cat, isoprenaline 0.2 μg/kg; read-out: ED50, Compound B
property_measured: log10 of ED50 (log10 of the value in mg/kg)

INSERT INTO results (molecule, property_measured, recorded_number) VALUES
  ('CC(C)NCC(O)COc1ccccc1OCC(=O)NC(C)C (stereo not drawn)', 'log10 of ED50', -0.70),
  ('CNC(=O)COc1ccccc1OCC(O)CNC(C)C (stereo not drawn)', 'log10 of ED50', -1.70),
  ('CCCCNC(=O)COc1ccccc1OCC(O)CNC(C)C (stereo not drawn)', 'log10 of ED50', -0.84),
  ('CC(C)NCC(O)COc1ccccc1OCC(N)=O (stereo not drawn)', 'log10 of ED50', -1.24),
  ('CC(C)(C)NCC(O)COc1ccccc1OCC(N)=O (stereo not drawn)', 'log10 of ED50', -1.96),
  ('C=CCNC(=O)COc1ccccc1OCC(O)CNC(C)C (stereo not drawn)', 'log10 of ED50', -1.47);

###

# test_system: cardiac β-receptors (Felis catus)
# Construct: bodyweight of isoprenaline into a chloralose-anaesthetised cat; from tissue; host or cells: heart of the living chloralose-anaesthetised cat (in vivo)
# measurement_protocol: inhibition of the tachycardia produced by injection of 0.2 μg/kg isoprenaline into a chloralose-anaesthetised cat (β-adrenergic blocking activity)
# Assay type: in vivo
# condition_info: other highly active compounds of the invention; chloralose-anaesthetised cat, isoprenaline 0.2 μg/kg; read-out: ED50
# Procedure: The comparison of the β-adrenergic blocking activity of compounds of the present invention with those of the said prior specification may be carried out using a test standard in the art, namely the inhibition of the tachycardia produced by the injection of 0.2 μg. per kg. bodyweight of isoprenaline into a chloralose-anaesthetised cat.
property_measured: ED50 (mg/kg)

INSERT INTO results (compound, property_measured, unit_abbreviation, recorded_number) VALUES
  ('CC(C)(C)NCC(O)COc1ccccc1OCC(=O)NCCO (stereo not shown) [R^1 t-butyl, R^3 2-hydroxyethyl]', 'ED50', 'mg/kg', 0.04),
  ('CNC(=O)COc1ccccc1OCC(O)CNC(C)(C)CO (stereo not shown)', 'ED50', 'mg/kg', 0.03),
  ('C=CCNC(=O)COc1ccccc1OCC(O)CNC(C)(C)C (stereo not shown) [R^1 t-butyl, R^3 allyl]', 'ED50', 'mg/kg', 0.027),
  ('CC(C)(C)NCC(O)COc1ccccc1OCC(=O)NCCCO (stereo not shown) [R^1 t-butyl, R^3 3-hydroxypropyl]', 'ED50', 'mg/kg', 0.074),
  ('CCNC(=O)COc1ccccc1OCC(O)CNC(C)(C)C (stereo not shown) [R^1 t-butyl, R^3 ethyl]', 'ED50', 'mg/kg', 0.018),
  ('COCCNC(=O)COc1ccccc1OCC(O)CNC(C)C (stereo not shown) [R^1 isopropyl, R^3 2-methoxyethyl]', 'ED50', 'mg/kg', 0.027),
  ('CC(C)NCC(O)COc1ccccc1OCC(=O)NCCO (stereo not shown) [R^1 isopropyl, R^3 2-hydroxyethyl]', 'ED50', 'mg/kg', 0.009),
  ('CC(C)NCC(O)COc1ccccc1OCC(=O)NCCCO (stereo not shown) [R^1 isopropyl, R^3 3-hydroxypropyl]', 'ED50', 'mg/kg', 0.047),
  ('CNC(=O)COc1ccccc1OCC(O)CNC(C)(C)C (stereo not shown) [R^1 t-butyl, R^3 methyl]', 'ED50', 'mg/kg', 0.014),
  ('CCNC(=O)COc1ccccc1OCC(O)CNC(C)C (stereo not shown) [R^1 isopropyl, R^3 ethyl]', 'ED50', 'mg/kg', 0.068);

The measurements presented in this section are drawn from patent US4059622A.
